endpoint-name: melting point (°C)
Field format: number, assumed °C, no unit text.

Study these solved cases before continuing.
compound: CCc1nc2cc(C)ccn2c1C(=O)NCc1ccc(Oc2ccc(OC(F)(F)F)cc2)cc1 [compound 219]
units-symbol: °C
melting point: 133.6

compound: CCc1nc2c(OC(F)F)cccn2c1C(=O)NCc1ccc(N2CCN(c3ccc(F)cc3)CC2)cc1 [compound 278]
units-symbol: °C
melting point: 186.3

compound: CCc1nc2cc(Cl)ccn2c1C(=O)NCc1ccc(N2CCC(F)(F)CC2)cc1 [compound 236]
units-symbol: °C
melting point: 166.3

compound: CCc1nc2ccc(Cl)cn2c1C(=O)NCc1ccc(N2CCC(C(F)(F)F)CC2)cc1 [compound 233]
units-symbol: °C
melting point: 197.9

compound: CCc1nc2ccc(Br)cn2c1C(=O)NCc1ccc(N2CCOCC2)cc1 [compound 240]
units-symbol: °C
melting point: 228.2

Now let's try a different one.
Param item = CCc1nc2ccc(Cl)cn2c1C(=O)NCc1ccc(N2CCC(COc3ccc(OC(F)(F)F)cc3)CC2)cc1 [compound 213] ; retrieve measured melting point.
183.6

---

Items are presented alongside their recorded melting point.
Field format: number, assumed °C, no unit text.

Study these solved cases before continuing.
smiles-text: CCc1nc2ncccn2c1C(=O)NCc1ccc(-c2ccc(Cl)cc2)cc1
reported: 184.8
//
smiles-text: CCc1nc2c[n+]([O-])ccn2c1C(=O)NCc1ccc(-c2ccc(Cl)cc2)cc1
reported: 238

Param item = `CCc1nc2ccc(Cl)cn2c1C(=O)NCc1ccc(N2CCC(c3ccc(F)cc3)CC2)cc1` ; retrieve measured melting point.
164

Param item = `CCc1nc2ccccn2c1C(=O)NCc1ccc(N2CCC(COc3ccc(F)cc3)CC2)cc1` ; retrieve measured melting point.
144.2

---

# tgt: Human 5-lipoxygenase (Homo sapiens)
# Construct: purchased Cayman 60402; host or cells: insect cells
# Sequence (P09917 whole entry): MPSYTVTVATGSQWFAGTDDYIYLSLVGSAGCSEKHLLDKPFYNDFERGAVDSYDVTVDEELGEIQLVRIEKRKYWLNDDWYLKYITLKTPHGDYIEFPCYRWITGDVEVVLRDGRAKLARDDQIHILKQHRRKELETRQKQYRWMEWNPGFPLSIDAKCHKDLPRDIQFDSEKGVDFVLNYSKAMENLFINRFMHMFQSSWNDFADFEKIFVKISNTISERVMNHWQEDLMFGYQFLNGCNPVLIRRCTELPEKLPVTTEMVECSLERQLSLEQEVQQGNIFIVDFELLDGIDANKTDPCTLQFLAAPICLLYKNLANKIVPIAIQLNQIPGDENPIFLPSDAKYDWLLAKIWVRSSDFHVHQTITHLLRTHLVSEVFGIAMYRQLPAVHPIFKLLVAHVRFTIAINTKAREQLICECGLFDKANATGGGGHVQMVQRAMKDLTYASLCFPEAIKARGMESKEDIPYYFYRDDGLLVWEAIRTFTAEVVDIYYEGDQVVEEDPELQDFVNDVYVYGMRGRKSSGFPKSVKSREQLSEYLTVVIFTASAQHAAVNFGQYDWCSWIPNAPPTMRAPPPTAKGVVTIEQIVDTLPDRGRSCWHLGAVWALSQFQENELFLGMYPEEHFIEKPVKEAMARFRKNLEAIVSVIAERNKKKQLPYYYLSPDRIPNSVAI
# method-description: Activity of compounds against 5-LO enzyme (LTB4 measurement and/or fluorescence method)
# Type: biochemical
# assay-setup: 5-LO, single concentration of 10 uM in duplicate
endpoint-name: inhibition at 10 µM

Study these solved cases before continuing.
compound: CCc1nc2cc(OC)ccn2c1C(=O)NCc1ccc(N2CCN(c3ccc(F)cc3)CC2)cc1
tgt: Human 5-lipoxygenase (Homo sapiens)
inhibition at 10 µM: < 40%
--
compound: CCc1nc2ccc(Cl)cn2c1C(=O)OCc1ccc(Oc2ccccc2)cc1
tgt: Human 5-lipoxygenase (Homo sapiens)
inhibition at 10 µM: 40 to 69%
--
compound: CCc1nc2cc(Cl)ccn2c1CNc1ccc(NC2CCN(c3ccc(F)cc3)CC2)cc1
tgt: Human 5-lipoxygenase (Homo sapiens)
inhibition at 10 µM: > 69%
--
compound: CCc1nc2c(OC)cccn2c1C(=O)NCc1ccc(N2CCOCC2)cc1
tgt: Human 5-lipoxygenase (Homo sapiens)
inhibition at 10 µM: < 40%
--
compound: CCc1nc2cc(Cl)ccn2c1C(=O)NCc1ccc(-c2ccccc2)cc1
tgt: Human 5-lipoxygenase (Homo sapiens)
inhibition at 10 µM: 40 to 69%

Param item = `CCc1nc2cc(Cl)ccn2c1C(=O)NCc1ccc(N2CCOCC2)cc1` ; retrieve measured inhibition at 10 µM.
< 40%

Param item = CCc1nc2cc(Cl)ccn2c1C(=O)NCc1ccc(N2CC3CC=CCC3C2)cc1 (centres unmarked) ; retrieve measured inhibition at 10 µM.
40 to 69%

Param item = `CCc1nc2cc([N+](=O)[O-])ccn2c1C(=O)NCc1ccc(OC(F)(F)F)cc1` ; retrieve measured inhibition at 10 µM.
40 to 69%

Hello, the source for this data is patent US9029389B2, in case you need it.
